Values compiled from PubChem BioAssay.

Measurement Target: Torsin-1A-interacting protein 1 (Homo sapiens) (UniProt Q5JTV8)
Sequence (Q5JTV8 whole entry, looked up): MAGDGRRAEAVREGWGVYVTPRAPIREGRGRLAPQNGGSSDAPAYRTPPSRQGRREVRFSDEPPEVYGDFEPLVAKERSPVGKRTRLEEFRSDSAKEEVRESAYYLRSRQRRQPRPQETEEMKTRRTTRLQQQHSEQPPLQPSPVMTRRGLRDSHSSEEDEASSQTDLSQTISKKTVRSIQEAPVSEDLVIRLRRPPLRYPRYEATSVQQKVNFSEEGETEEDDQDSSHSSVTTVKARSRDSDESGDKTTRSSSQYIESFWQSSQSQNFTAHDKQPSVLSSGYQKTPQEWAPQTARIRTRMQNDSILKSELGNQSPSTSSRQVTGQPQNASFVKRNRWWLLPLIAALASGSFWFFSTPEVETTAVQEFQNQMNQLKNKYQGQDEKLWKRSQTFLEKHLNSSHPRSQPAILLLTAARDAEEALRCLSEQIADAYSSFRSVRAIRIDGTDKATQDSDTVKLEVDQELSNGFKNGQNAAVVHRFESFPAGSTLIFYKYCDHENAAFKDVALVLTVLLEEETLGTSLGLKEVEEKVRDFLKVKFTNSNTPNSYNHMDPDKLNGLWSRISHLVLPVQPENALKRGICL
Assay Summary: LAP1 binders from COS7 cell lysate, primary screen, small-molecule microarray, 635/667 nm fluorescence (AID 1116)
Cond: COS7-hLAP1 lysate binding, 635 nm fluorescence, higher = more signal
// False strictly below 1 in composite z-score; True otherwise

For orientation, consider the following solved cases.
* COc1ccc(CCNC(=O)[C@@]2(Sc3ccc(C)cc3)CC(=O)N(C3Cc4ccccc4C3)[C@@H]2c2ccc(CO)cc2I)cc1 | False
* CCCCCN1CC=CC23O[C@@H]4C=CCCOC(=O)C4[C@H]2C(=O)N(CCCCCO)[C@@H]3C1=O (some centres undefined) | False
* COC(=O)[C@@]1(CCC(=O)OC(C)(C)C)N=C(c2ccc(OCCCO)cc2)O[C@H]1c1ccccc1N=[N+]=[N-] | True

Please tell me: is the molecule `CCOC(=O)C[C@H]1[C@H](OC(=O)c2ccc(C(=O)c3ccccc3)cc2)[C@@H](NC(=O)c2ccccc2)c2cc(OCCCO)ccc2N1C(=O)Cc1ccc(OC)cc1` at or over 1 in terms of composite z-score? False

Repeat with `Cc1ccc(S[C@]2(C(=O)NCCCN(C)C)CC(=O)N(Cc3cc(C(F)(F)F)cc(C(F)(F)F)c3)[C@@H]2c2ccc(CO)cc2I)cc1` False

Repeat with CN1C(=O)C2C=CC(C(O)c3ccc([N+](=O)[O-])cc3)N(N3CCCCC3)C2C1=O (centres undefined) False

====

Assay Summary: FRG1 promoter luciferase signal modulators, primary screen, FRG1 inhibition for FSHD, cell-based, C2C12 myotubes, firefly/Renilla luciferase, luminescence (AID 1084)
Cond: higher = more signal, called active from +8 up or from −8 down
// class 0 strictly below -0.5 in z-score; class 1 otherwise

For orientation, consider the following solved cases.
- COc1ccccc1CN1C(=O)c2ccccc2[C@@]2(Cc3ccccc3N(CC(C)C)C2=O)[C@@H]1c1ccc(CO)cc1: class 1
- CC(C)N1C(=O)C[C@@](C(=O)NCC(F)(F)F)(c2ccc([N+](=O)[O-])cc2)[C@H]1c1ccc(CO)cc1: class 1
- C=CCC(OC(C)=O)[C@@H]1[C@@H](N(Cc2ccc(-c3ccccc3)cc2)C(=O)Cc2ccc(OC)cc2)c2cc(OCCCO)ccc2N1C(=O)Cc1ccc2ccccc2c1 (some centres not stated): class 0
- COCCOC(=O)N1C(=O)[C@@]2(c3cc(C#CCCO)ccc31)[C@H](C(=O)N1CCCCCCC1)[C@H]1C(=O)O[C@H](c3ccccc3)[C@H](c3ccccc3)N1[C@@H]2c1ccc(OCCO)cc1: class 0
- COCCCNC(=O)[C@@H]1c2ccccc2C(=O)N(Cc2ccccc2Cl)[C@H]1c1ccc(CO)cc1: class 0

Please tell me: is the compound `NCCCCCNC(=O)[C@@H]1C[C@@H]2C(=O)N[C@@H](Cc3ccccc3)C(=O)N2[C@@H]1c1ccc(O)cc1` at or over -0.5 in terms of z-score? class 1

Repeat with `NC(=O)NCC#Cc1ccc2c(c1)[C@]1(C(=O)N2)[C@H](C(N)=O)[C@H]2C(=O)O[C@H](c3ccccc3)[C@H](c3ccccc3)N2[C@@H]1c1ccc(O)cc1` class 1

====

Measurement Target: Follistatin (Homo sapiens)
Assay Summary: follistatin binders on small-molecule microarrays, primary screen, biochemical, small-molecule microarray, 635/667 nm fluorescence (AID 1132)
Cond: FST binding, 635 nm fluorescence, higher = more signal
// false strictly below 0.9 in composite z-score; true otherwise

For orientation, consider the following solved cases.
* C=C(C(=O)CC[C@@H](OC(=O)c1cccnc1)c1ccccc1OCCO)C(C)C | false
* CCCCCN1CC=CC23O[C@@H]4C=CCCOC(=O)C4[C@H]2C(=O)N(CCCCCO)[C@@H]3C1=O (some centres undefined) | false
* CN(C)CCCC[C@@H]1NC(=O)[C@@H]2C[C@H](C(=O)NCCCCCCN)[C@H](c3cccc(OCCO)c3)N2C1=O | false
* CC(C)=CCN[C@H](CO)c1ccccc1 | false
* C=CCNC(=O)[C@H]1[C@@H]2C(=O)O[C@@H](c3ccccc3)[C@@H](c3ccccc3)N2[C@@H](c2ccccc2OCCO)[C@]12C(=O)Nc1ccc(C#CCCO)cc12 | false

Note: attention shifts to another entry.
Please tell me: is the compound `COC(=O)C(CC#Cc1ccc2c(c1)[C@]1(C(=O)N2)[C@H](C(=O)Nc2nc3ccccc3s2)[C@H]2C(=O)O[C@H](c3ccccc3)[C@H](c3ccccc3)N2[C@@H]1c1ccccc1OCCO)C(=O)OC` at or over 0.9 in terms of composite z-score? true
